B1: PKD2L1 (parent)
chain: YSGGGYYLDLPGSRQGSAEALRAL

# Variants of: B1
# assay.text: protein stability index of a GFP-peptide fusion (GPS, HEK-293T) (PSI 1-6); higher = more stable;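 also: lentivirally expressed fusions sorted by FACS into six bins by GFP to DsRed ratio, PSI derived from sequencing read proportions per bin multiplied by bin number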
# experimental.context: c terminus: a fixed tail appended
Readings of protein stability index for the listed variants

mutation.spec: G16Q
protein stability index: 2

[Q] Quick one: protein stability index for `L10D` ?
[A] 2.02

[Q] Quick one: protein stability index for `G12A` ?
[A] 2.05

[Q] Quick one: protein stability index for `S17W` ?
[A] 1.98

[Q] Quick one: protein stability index for `E19K` ?
[A] 1.98
